meta.source: ChEMBL document CHEMBL3988442

Target: Shiga toxin 2 (Escherichia coli O157:H7) (UniProt P09385+P09386)
Experiment: E. coli 0.157:H7 Shiga Toxin SOP - stx2 screening assay
Format: functional
Design: scale not given: direction of the effect not stated beside the values
Conditions: 30 µM
I'd appreciate it if you could supply Percent Effect values for the items below.
One number for each entry, in %.

Compound	System	Measure	Unit tag	Result
COc1cccc(S(=O)(=O)N2CCC(O)(CN(C)C)C2)c1 (stereo not drawn)	Shiga toxin 2 (Escherichia coli O157:H7) (UniProt P09385+P09386)	Percent Effect	%	11.2
O=C(c1ccc2c(c1)OCO2)N1CCCSCC1CN1CCCC1 (stereo not drawn)	Shiga toxin 2 (Escherichia coli O157:H7) (UniProt P09385+P09386)	Percent Effect	%	-5.02
Cc1cc(CN2CCc3nn(C(C)C)c(=O)cc3C2)no1	Shiga toxin 2 (Escherichia coli O157:H7) (UniProt P09385+P09386)	Percent Effect	%	6.39
O=C(CN1CCc2ccccc21)Nc1ccc(OC(F)F)cc1	Shiga toxin 2 (Escherichia coli O157:H7) (UniProt P09385+P09386)	Percent Effect	%	-7.39
COCCCC1(CO)CCCN(CCc2ccccc2)C1 (stereo not drawn)	Shiga toxin 2 (Escherichia coli O157:H7) (UniProt P09385+P09386)	Percent Effect	%	-15.6
CCCN1CCC(N(Cc2ncc(C)o2)C(C)=O)C1 (stereo not drawn)	Shiga toxin 2 (Escherichia coli O157:H7) (UniProt P09385+P09386)	Percent Effect	%	2.8

Hi team, please reply with Percent Effect for each item in this list.
1. c1cc(CNCc2ccc3c(c2)CCO3)cc(N2CCOCC2)n1
2. Cn1nccc1CNC(=O)Nc1cc(C(F)(F)F)c[nH]c1=O
3. CCCn1[nH]cc/c1=N\C(=O)CN1CCCC1c1c(C)nn(C)c1C (stereo not drawn)
4. Cc1noc(C)c1-c1cccc(CC2CCN(C(=O)c3cc[nH]n3)C2)n1 (stereo not drawn)
5. Cc1cc(C)n(CC2CN(Cc3nc(-c4ccoc4)no3)CCO2)n1 (stereo not drawn)
6. O=C(O)C1CCCCN1C(=O)c1cccc(C(F)(F)F)c1 (stereo not drawn)

[-32.6, 21, -11, 4.37, 28.8, 33.5]

Hi team, please reply with Percent Effect for each item in this list.
1. N#Cc1ccnc(N2CCN(C(=O)Cc3ccc4c(c3)CCO4)CC2)c1
2. CC(CN1CCC2(CC1)c1nc[nH]c1CCN2S(C)(=O)=O)C(F)(F)F (stereo not drawn)
3. Cc1ccc(C(=O)N2CCN(Cc3ccsc3)CC2)n1C

1. 6.14
2. 4.49
3. 3.04

Hi team, please reply with Percent Effect for each item in this list.
1. CCOC[C@H]1CC[C@H]2[C@H](CCN2C(=O)c2ccncc2F)O1
2. CN(C)c1nccc(N2CCO[C@H]3CN(Cc4ccsc4)C[C@H]32)n1
3. CCn1nnc2c1C(COC)CN(C(=O)Cc1cccs1)C2 (stereo not drawn)
4. COc1cnc(C2(O)CCN(C(=O)c3ccncc3)CC2)c(OC)n1
5. c1cc(CO[C@@H]2CC[C@H]3[C@H]2OCCN3Cc2ccoc2)ccn1
6. COc1c(CNCc2ccc(CN(C)C)cc2)c(C)nn1C

1: -0.318; 2: -97.8; 3: -30.3; 4: -1.51; 5: 1.68; 6: -30.1
